Tested on: 186277-243-T-J2-PDC complex spheroid viability;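 further: spheroids exposed to compounds for seven days; 100% = DMSO vehicle control viability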
Assay: Anticancer human tumor 186277-243-T-J2-PDC patient-derived colon adenocarcinoma cell line growth inhibition [POLQ]
Conditions: second compound 0.1 µM; first compound 0.316 µM; hits give low values

{"molecule": "CNCc1ccc(-c2[nH]c3cc(F)cc4c3c2CCNC4=O)cc1 + Nc1ccc(C#CCN(C(=O)Cc2ncc(C(F)(F)F)cc2C(F)(F)F)c2ccc(F)cc2)nn1", "viability, T/C": "108%"}
{"molecule": "C=CC(=O)N1CCN(c2nc(=O)n(-c3c(C)ccnc3C(C)C)c3nc(-c4c(O)cccc4F)c(F)cc23)C(C)C1 (stereo not drawn) + Cc1cccc(N(C)C(=O)C2C(O)CCN2c2nc(C)cc(C(F)(F)F)c2C#N)c1", "viability, T/C": "103%"}
{"molecule": "O=c1[nH]cc(F)c(=O)[nH]1 + Nc1ccc(C#CCN(C(=O)Cc2ncc(C(F)(F)F)cc2C(F)(F)F)c2ccc(F)cc2)nn1", "viability, T/C": "97.4%"}

Data credit: PubChem BioAssay AID1963854
